- assay.system: FLT3 (Homo sapiens (Human), UniProt P36888)
- Sequence (P36888 27-993): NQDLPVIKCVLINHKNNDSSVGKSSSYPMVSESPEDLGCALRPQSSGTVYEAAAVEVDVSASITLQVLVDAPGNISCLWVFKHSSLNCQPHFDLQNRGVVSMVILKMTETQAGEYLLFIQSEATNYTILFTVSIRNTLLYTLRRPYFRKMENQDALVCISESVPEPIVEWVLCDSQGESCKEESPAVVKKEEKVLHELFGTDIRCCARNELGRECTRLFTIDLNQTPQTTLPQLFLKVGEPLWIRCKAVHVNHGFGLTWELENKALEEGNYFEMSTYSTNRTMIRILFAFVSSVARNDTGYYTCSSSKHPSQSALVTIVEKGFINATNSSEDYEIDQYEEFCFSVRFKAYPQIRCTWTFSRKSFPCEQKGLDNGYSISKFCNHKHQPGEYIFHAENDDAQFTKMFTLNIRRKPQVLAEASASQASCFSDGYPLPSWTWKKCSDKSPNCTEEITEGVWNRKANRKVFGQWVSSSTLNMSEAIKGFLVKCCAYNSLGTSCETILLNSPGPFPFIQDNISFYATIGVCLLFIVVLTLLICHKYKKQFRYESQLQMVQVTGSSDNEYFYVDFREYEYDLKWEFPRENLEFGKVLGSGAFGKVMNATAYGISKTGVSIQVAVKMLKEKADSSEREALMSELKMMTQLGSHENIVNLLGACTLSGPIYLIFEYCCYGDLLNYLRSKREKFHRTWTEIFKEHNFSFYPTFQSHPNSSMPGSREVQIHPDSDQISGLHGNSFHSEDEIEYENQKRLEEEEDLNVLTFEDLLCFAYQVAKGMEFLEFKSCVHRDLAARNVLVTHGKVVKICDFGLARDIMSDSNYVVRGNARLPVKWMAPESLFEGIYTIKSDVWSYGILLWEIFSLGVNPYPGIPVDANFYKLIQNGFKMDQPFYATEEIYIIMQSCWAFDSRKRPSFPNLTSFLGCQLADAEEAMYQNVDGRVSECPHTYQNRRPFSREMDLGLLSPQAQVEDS
- test: FLT3 kinase activity assay (Caliper)
- Assay type: biochemical
- conditions.used: read-out: Inhibitory activity on kinase (IC50, nM) FLT3
observation.type: IC50 (nM)

Recorded results for 4 molecules are shown here.
molecule: C=CC(=O)Nc1ccc(-n2c(=O)cnc3cnc(Nc4ccccc4)nc32)cc1 [Compound 014]
observation.type: IC50
measurement.unit: nM
meas.value: 129
--
molecule: C=CC(=O)Nc1cccc(-n2c(=O)cnc3cnc(Nc4ccc(N5CCN(C)CC5)cc4OC)nc32)c1 [Compound 032]
observation.type: IC50
measurement.unit: nM
meas.value: 1170
--
molecule: C=CC(=O)Nc1cccc(-n2c(=O)cnc3cnc(Nc4ccccc4)nc32)c1 [Compound 015]
observation.type: IC50
measurement.unit: nM
meas.value: 1860
--
molecule: COc1ccc(Nc2ncc3ncc(=O)n(-c4cccc(N)c4)c3n2)cc1 [Compound 005]
observation.type: IC50
measurement.unit: nM
meas.value: 30

P: C=CC(=O)Nc1cccc(-n2c(=O)cnc3cnc(Nc4ccc(N5CCN(C)CC5)cc4)nc32)c1 [Compound 020]
Q: C=CC(=O)Nc1cccc(-n2c(=O)cnc3cnc(Nc4ccc(C(N)=O)cc4)nc32)c1 [Compound 025]
R: CN(C)C/C=C/C(=O)Nc1cccc(-n2c(=O)cnc3cnc(Nc4ccccc4)nc32)c1 [Compound 013]
S: C=CC(=O)Nc1ccc(-n2c(=O)cnc3cnc(Nc4ccc(N5CCN(C)CC5)cc4)nc32)cc1 [Compound 019]
Task for the reader: rank each entry by its IC50, from the minimum upward. To answer, arrange all of the labels according to the requested order.
S, P, Q, R
(S: 51 nM, P: 322 nM, Q: 1790 nM, R: 3780 nM)

---

- assay.system: EGFR-L858R/T790M (Homo sapiens (Human), UniProt P00533, L858R/T790M)
- Sequence (P00533 25-1210 T790M/L858R): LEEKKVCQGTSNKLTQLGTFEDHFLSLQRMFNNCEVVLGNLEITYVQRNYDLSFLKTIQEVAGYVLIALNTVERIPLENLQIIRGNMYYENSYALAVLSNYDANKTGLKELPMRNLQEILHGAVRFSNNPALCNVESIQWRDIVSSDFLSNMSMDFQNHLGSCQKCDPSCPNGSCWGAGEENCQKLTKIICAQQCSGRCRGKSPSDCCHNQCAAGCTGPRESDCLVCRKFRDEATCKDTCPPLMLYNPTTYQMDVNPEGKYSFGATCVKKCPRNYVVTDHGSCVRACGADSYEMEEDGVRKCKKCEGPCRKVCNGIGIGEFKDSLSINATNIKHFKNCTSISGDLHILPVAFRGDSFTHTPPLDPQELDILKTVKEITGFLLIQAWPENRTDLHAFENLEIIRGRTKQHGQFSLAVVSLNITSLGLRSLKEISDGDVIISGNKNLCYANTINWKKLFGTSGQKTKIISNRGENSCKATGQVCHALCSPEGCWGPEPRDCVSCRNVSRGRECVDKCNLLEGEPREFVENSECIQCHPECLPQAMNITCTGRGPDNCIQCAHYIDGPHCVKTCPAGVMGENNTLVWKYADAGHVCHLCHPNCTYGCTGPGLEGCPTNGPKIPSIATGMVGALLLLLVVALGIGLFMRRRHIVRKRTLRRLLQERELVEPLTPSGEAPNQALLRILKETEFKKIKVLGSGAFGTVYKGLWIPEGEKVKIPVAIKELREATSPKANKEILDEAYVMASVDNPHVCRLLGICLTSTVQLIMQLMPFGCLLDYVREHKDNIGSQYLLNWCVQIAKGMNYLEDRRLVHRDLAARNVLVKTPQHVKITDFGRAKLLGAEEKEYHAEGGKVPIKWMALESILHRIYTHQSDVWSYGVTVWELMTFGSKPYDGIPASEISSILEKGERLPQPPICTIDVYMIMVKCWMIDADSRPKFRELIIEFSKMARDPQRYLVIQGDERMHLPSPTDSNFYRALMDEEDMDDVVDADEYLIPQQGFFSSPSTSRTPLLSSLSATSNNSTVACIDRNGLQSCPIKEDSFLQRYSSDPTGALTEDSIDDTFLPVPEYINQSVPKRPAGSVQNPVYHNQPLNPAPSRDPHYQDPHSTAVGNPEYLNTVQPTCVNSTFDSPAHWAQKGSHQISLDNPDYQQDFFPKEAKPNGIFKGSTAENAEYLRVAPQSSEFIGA
- test: In vitro EGFR kinase activity assay (Z'-Lyte);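 note: Cell-free kinase reaction with peptide substrate and ATP, 1.5 h at room temperature, development cleaving unphosphorylated peptide, 10-point dilution 0.051–1000 nM, phosphopeptide as 100% phosphorylation control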
- Assay type: biochemical
- conditions.used: read-out: Inhibitory activity on EGFR kinase (IC50, nM) T790M/L858R
observation.type: IC50 (nM)

a: C=CC(=O)Nc1cccc(-n2c(=O)cnc3cnc(Nc4ccc(N(CC)CC)cc4)nc32)c1 [Compound 023]
b: C=CC(=O)Nc1ccc(-n2c(=O)cnc3cnc(Nc4ccc(N5CCN(C)CC5)cc4OC)nc32)cc1 [Compound 031]
Just tell me: smaller IC50 value, a or b ? In your reply, give the label of the chosen option.
a
(a: 5.57 nM, b: 229 nM)

---

- assay.system: EGFR-L858R (Homo sapiens (Human), UniProt P00533, L858R)
- Sequence (P00533 25-1210 L858R): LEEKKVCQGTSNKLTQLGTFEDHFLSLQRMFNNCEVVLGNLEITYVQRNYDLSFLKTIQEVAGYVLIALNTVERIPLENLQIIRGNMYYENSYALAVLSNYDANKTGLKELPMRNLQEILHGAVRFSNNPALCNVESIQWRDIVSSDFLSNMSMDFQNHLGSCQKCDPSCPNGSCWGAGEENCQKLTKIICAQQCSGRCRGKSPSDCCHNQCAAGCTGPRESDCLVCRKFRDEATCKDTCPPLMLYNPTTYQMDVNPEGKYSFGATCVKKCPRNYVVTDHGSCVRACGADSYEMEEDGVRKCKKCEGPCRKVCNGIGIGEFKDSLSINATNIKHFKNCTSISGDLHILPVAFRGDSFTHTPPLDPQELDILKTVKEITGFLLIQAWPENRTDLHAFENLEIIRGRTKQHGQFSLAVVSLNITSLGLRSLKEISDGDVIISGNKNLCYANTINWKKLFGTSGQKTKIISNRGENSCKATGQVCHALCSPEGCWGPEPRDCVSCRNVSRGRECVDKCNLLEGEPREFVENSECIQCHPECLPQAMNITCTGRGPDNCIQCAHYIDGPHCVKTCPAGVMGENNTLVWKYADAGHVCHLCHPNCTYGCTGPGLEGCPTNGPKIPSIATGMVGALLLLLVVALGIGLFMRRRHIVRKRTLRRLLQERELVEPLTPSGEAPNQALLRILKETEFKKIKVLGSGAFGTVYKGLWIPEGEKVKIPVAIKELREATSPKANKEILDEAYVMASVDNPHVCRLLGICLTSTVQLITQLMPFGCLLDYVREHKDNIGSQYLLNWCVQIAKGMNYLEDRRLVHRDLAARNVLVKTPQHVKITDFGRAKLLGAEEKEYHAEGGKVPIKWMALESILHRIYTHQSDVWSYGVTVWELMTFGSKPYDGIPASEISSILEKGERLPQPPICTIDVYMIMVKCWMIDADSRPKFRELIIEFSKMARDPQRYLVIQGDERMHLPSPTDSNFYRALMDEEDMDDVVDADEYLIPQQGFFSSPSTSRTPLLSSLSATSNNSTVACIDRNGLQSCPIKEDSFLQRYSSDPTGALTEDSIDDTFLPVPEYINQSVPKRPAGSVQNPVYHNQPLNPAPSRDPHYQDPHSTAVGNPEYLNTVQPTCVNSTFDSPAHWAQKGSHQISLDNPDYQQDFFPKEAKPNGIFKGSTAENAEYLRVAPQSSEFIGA
- test: In vitro EGFR kinase activity assay (Z'-Lyte)
- Type: biochemical
- conditions.used: read-out: Inhibitory activity on EGFR kinase (IC50, nM) L858R
Reported IC50 values are given for each entry in this list.

Recorded results for 2 compounds are shown here.
compound: CCC(=O)Nc1ccc(-n2c(=O)cnc3cnc(Nc4ccc(OC)cc4)nc32)cc1 [Compound 008]
meas.value: > 10000 nM
--
compound: COc1ccc(Nc2ncc3ncc(=O)n(-c4ccc(N)cc4)c3n2)cc1 [Compound 001]
meas.value: > 10000 nM

Next, consider the following compound.
Please provide the recorded IC50 for COc1ccc(-n2c(=O)cnc3cnc(Nc4ccc(N)cc4)nc32)cc1 [Compound 030] , tested on EGFR-L858R (Homo sapiens (Human), UniProt P00533, L858R).
23800 nM

---

- assay.system: wild-type EGFR (Homo sapiens (Human), UniProt P00533)
- Sequence (P00533 25-1210): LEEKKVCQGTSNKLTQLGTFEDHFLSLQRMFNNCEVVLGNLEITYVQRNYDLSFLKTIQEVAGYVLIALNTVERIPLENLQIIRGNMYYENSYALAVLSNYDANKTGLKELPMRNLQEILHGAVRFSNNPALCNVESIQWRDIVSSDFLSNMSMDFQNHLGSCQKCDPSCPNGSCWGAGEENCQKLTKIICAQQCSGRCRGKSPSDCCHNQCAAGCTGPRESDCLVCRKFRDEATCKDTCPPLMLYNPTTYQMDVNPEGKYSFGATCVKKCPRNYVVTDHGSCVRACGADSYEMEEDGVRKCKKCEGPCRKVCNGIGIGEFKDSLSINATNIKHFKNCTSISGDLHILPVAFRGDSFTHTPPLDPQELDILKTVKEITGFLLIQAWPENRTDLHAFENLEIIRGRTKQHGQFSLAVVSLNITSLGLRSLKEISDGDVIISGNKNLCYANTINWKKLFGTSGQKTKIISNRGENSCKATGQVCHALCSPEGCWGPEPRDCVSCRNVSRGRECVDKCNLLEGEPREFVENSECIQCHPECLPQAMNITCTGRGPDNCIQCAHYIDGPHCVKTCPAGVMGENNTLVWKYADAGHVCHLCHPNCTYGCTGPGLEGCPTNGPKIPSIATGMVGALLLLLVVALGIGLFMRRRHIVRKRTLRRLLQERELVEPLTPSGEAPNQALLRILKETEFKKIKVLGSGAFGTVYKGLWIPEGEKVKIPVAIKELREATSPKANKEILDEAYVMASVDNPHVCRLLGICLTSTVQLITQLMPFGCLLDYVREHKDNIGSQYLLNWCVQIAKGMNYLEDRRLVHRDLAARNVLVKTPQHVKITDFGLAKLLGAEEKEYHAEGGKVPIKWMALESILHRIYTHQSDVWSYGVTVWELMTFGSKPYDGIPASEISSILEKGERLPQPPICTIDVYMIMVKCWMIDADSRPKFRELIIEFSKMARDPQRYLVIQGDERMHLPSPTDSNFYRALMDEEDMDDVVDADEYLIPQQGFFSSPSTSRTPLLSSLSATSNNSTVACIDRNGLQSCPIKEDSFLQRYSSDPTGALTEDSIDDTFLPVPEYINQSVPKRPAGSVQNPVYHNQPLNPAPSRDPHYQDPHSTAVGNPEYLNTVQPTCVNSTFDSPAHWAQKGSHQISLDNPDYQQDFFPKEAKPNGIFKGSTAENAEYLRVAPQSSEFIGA
- test: In vitro EGFR kinase activity assay (Z'-Lyte)
- Assay type: biochemical
- conditions.used: EGFR WT; read-out: Inhibitory activity on EGFR kinase (IC50, nM) WT
observation.type: IC50 (nM)

Recorded results for 4 compounds are shown here.
molecule: COc1ccc(-n2c(=O)cnc3cnc(Nc4ccc(N)cc4)nc32)cc1
IC50 (nM): 3420
//
molecule: C=CC(=O)Oc1ccc(-n2c(=O)cnc3cnc(Nc4ccc(OC)cc4)nc32)cc1
IC50 (nM): 67
//
molecule: C=CC(=O)Nc1ccc(-n2c(=O)cnc3cnc(Nc4ccc(N5CCN(C)CC5)cc4)nc32)cc1
IC50 (nM): 1260
//
molecule: C=CC(=O)Nc1ccc(-n2c(=O)cnc3cnc(Nc4ccc(Cl)cc4)nc32)cc1
IC50 (nM): 7580

1: C=CC(=O)Nc1cccc(-n2c(=O)cnc3cnc(Nc4ccc(N5CCN(C)CC5)cc4)nc32)c1
2: C=CC(=O)Nc1ccc(-n2c(=O)cnc3cnc(Nc4ccc(N5CCN(C)CC5)cc4OC)nc32)cc1
3: COc1ccc(Nc2ncc3ncc(=O)n(-c4ccc(NC(=O)/C=C/CN(C)C)cc4)c3n2)cc1
Task for the reader: rank each entry by its IC50, from the minimum upward. To answer, arrange all of the labels according to the requested order.
1, 3, 2
(1: 1.47 nM, 3: 60.7 nM, 2: 429 nM)

---

- assay.system: wild-type EGFR (Homo sapiens (Human), UniProt P00533)
- test: In vitro EGFR kinase activity assay (Z'-Lyte)
- Assay type: biochemical
- conditions.used: EGFR WT; read-out: Inhibitory activity on EGFR kinase (IC50, nM) WT
observation.type: IC50

molecule: COc1ccc(Nc2ncc3ncc(=O)n(-c4ccc(N)cc4)c3n2)cc1
IC50: > 10000 nM
--
molecule: C=CC(=O)Nc1ccc(Nc2ncc3ncc(=O)n(-c4ccc(OC)cc4)c3n2)cc1
IC50: > 10000 nM
--
molecule: COc1ccc(Nc2ncc3ncc(=O)n(-c4cccc(N)c4)c3n2)cc1
IC50: > 10000 nM
--
molecule: CCC(=O)Nc1ccc(-n2c(=O)cnc3cnc(Nc4ccc(OC)cc4)nc32)cc1
IC50: > 10000 nM
--
molecule: CCC(=O)Nc1cccc(-n2c(=O)cnc3cnc(Nc4ccc(OC)cc4)nc32)c1
IC50: > 10000 nM

Next, consider the following compound.
Looking for the measured IC50 of `C=CC(=O)Nc1ccc(-n2c(=O)c(C)nc3cnc(Nc4ccc(OC)cc4)nc32)cc1` , can you help?
3180 nM

Values were extracted from patent US9670213B2.
